Recorded MIC by entry
# System: Shigella flexneri
# assay overview: Antibacterial activity against Shigella flexneri MTCC 1457 assessed as inhibition of visual growth after 24 hrs
# Format: functional
# applied conditions: MTCC 1457, 24 h

{"compound": "C#CCN1C(=O)[C@]2(c3ccccc31)[C@H](c1cn(-c3ccccc3)nc1-c1ccccc1)[C@@](C#N)(C(=O)c1c[nH]c3ccccc13)C1CCCN12 (some centres undefined)", "MIC, mg/L": 500}
{"compound": "N#C[C@]1(C(=O)c2c[nH]c3ccccc23)C2CSCN2[C@]2(C(=O)N(Cc3ccccc3)c3ccccc32)[C@@H]1c1cn(-c2ccccc2)nc1-c1ccccc1 (some centres undefined)", "MIC, mg/L": 500}
{"compound": "N#C[C@]1(C(=O)c2c[nH]c3ccccc23)C2CCCN2[C@]2(C(=O)Nc3ccc([N+](=O)[O-])cc32)[C@@H]1c1cn(-c2ccccc2)nc1-c1ccccc1 (some centres undefined)", "MIC, mg/L": 500}
{"compound": "N#C[C@]1(C(=O)c2c[nH]c3ccccc23)C2CCCN2[C@]2(C(=O)Nc3ccccc32)[C@@H]1c1cn(-c2ccccc2)nc1-c1ccccc1 (some centres undefined)", "MIC, mg/L": 31.2}

---

# Tested on: Shigella flexneri
# assay overview: Antibacterial activity against Shigella flexneri MTCC 1457 assessed as inhibition of visual growth after 24 hrs
# Assay type: functional
# applied conditions: MTCC 1457, 24 h
Recorded MIC by entry

{"compound": "N#C[C@]1(C(=O)c2c[nH]c3ccccc23)C2CSCN2[C@]2(C(=O)Nc3ccccc32)[C@@H]1c1cn(-c2ccccc2)nc1-c1ccccc1 (stereo partly specified)", "measured target": "Shigella flexneri", "MIC (µg/mL)": 500}
{"compound": "CCCCN1C(=O)[C@]2(c3ccccc31)[C@H](c1cn(-c3ccccc3)nc1-c1ccccc1)[C@@](C#N)(C(=O)c1c[nH]c3ccccc13)C1CSCN12 (stereo partly specified)", "measured target": "Shigella flexneri", "MIC (µg/mL)": 500}
{"compound": "CN1C(=O)[C@]2(c3ccccc31)[C@H](c1cn(-c3ccccc3)nc1-c1ccccc1)[C@@](C#N)(C(=O)c1c[nH]c3ccccc13)C1CCCN12 (stereo partly specified)", "measured target": "Shigella flexneri", "MIC (µg/mL)": 250}
{"compound": "C=CCN1C(=O)[C@]2(c3ccccc31)[C@H](c1cn(-c3ccccc3)nc1-c1ccccc1)[C@@](C#N)(C(=O)c1c[nH]c3ccccc13)C1CSCN12 (stereo partly specified)", "measured target": "Shigella flexneri", "MIC (µg/mL)": 500}
{"compound": "C=CCN1C(=O)[C@]2(c3ccccc31)[C@H](c1cn(-c3ccccc3)nc1-c1ccccc1)[C@@](C#N)(C(=O)c1c[nH]c3ccccc13)C1CCCN12 (stereo partly specified)", "measured target": "Shigella flexneri", "MIC (µg/mL)": 250}
{"compound": "CC(=O)N1CCN(c2ccc(OCC3COC(Cn4ccnc4)(c4ccc(Cl)cc4Cl)O3)cc2)CC1 (stereo unspecified)", "measured target": "Shigella flexneri", "MIC (µg/mL)": 6.25}

---

# Tested on: Klebsiella aerogenes
# assay overview: Antibacterial activity against Enterobacter aerogenes MTCC 111 assessed as inhibition of visual growth after 24 hrs
# Assay type: functional
# applied conditions: MTCC 111, 24 h

{"molecule": "CN1C(=O)[C@]2(c3ccccc31)[C@H](c1cn(-c3ccccc3)nc1-c1ccccc1)[C@@](C#N)(C(=O)c1c[nH]c3ccccc13)C1CSCN12 (stereo partly specified)", "MIC": "500 µg/mL"}
{"molecule": "C#CCN1C(=O)[C@]2(c3ccccc31)[C@H](c1cn(-c3ccccc3)nc1-c1ccccc1)[C@@](C#N)(C(=O)c1c[nH]c3ccccc13)C1CCCN12 (stereo partly specified)", "MIC": "250 µg/mL"}
{"molecule": "C=CCN1C(=O)[C@]2(c3ccccc31)[C@H](c1cn(-c3ccccc3)nc1-c1ccccc1)[C@@](C#N)(C(=O)c1c[nH]c3ccccc13)C1CSCN12 (stereo partly specified)", "MIC": "250 µg/mL"}
{"molecule": "CN1C[C@](C#N)(C(=O)c2c[nH]c3ccccc23)[C@@H](c2cn(-c3ccccc3)nc2-c2ccccc2)[C@@]12C(=O)N(Cc1ccccc1)c1ccccc12", "MIC": "500 µg/mL"}
{"molecule": "C#CCN1C(=O)[C@]2(c3ccccc31)[C@H](c1cn(-c3ccccc3)nc1-c1ccccc1)[C@@](C#N)(C(=O)c1c[nH]c3ccccc13)CN2C", "MIC": "250 µg/mL"}
{"molecule": "CC(=O)N1CCN(c2ccc(OCC3COC(Cn4ccnc4)(c4ccc(Cl)cc4Cl)O3)cc2)CC1 (stereo unspecified)", "MIC": "25 µg/mL"}

---

# System: Staphylococcus aureus
# assay overview: Antibacterial activity against methicillin-resistant Staphylococcus aureus assessed as inhibition of visual growth after 24 hrs
# Type: functional
Recorded log10(MIC) by entry
reported endpoint: log10(MIC) (log10 of the value in µg/mL)

{"compound": "C#CCN1C(=O)[C@]2(c3ccccc31)[C@H](c1cn(-c3ccccc3)nc1-c1ccccc1)[C@@](C#N)(C(=O)c1c[nH]c3ccccc13)C1CCCN12 (stereo not given in full)", "reported endpoint": "log10(MIC)", "numeric value": 2.40}
{"compound": "CC(=O)N1CCN(c2ccc(OCC3COC(Cn4ccnc4)(c4ccc(Cl)cc4Cl)O3)cc2)CC1 (stereo not given)", "reported endpoint": "log10(MIC)", "numeric value": 0.80}
{"compound": "CN1C[C@](C#N)(C(=O)c2c[nH]c3ccccc23)[C@@H](c2cn(-c3ccccc3)nc2-c2ccccc2)[C@@]12C(=O)Nc1ccc([N+](=O)[O-])cc12", "reported endpoint": "log10(MIC)", "numeric value": 2.10}
{"compound": "CCCCN1C(=O)[C@]2(c3ccccc31)[C@H](c1cn(-c3ccccc3)nc1-c1ccccc1)[C@@](C#N)(C(=O)c1c[nH]c3ccccc13)C1CCCN12 (stereo not given in full)", "reported endpoint": "log10(MIC)", "numeric value": 2.70}
{"compound": "N#C[C@]1(C(=O)c2c[nH]c3ccccc23)C2CCCN2[C@]2(C(=O)Nc3ccccc32)[C@@H]1c1cn(-c2ccccc2)nc1-c1ccccc1 (stereo not given in full)", "reported endpoint": "log10(MIC)", "numeric value": 1.49}
{"compound": "CN1C(=O)[C@]2(c3ccccc31)[C@H](c1cn(-c3ccccc3)nc1-c1ccccc1)[C@@](C#N)(C(=O)c1c[nH]c3ccccc13)C1CCCN12 (stereo not given in full)", "reported endpoint": "log10(MIC)", "numeric value": 2.10}
{"compound": "CCCCN1C(=O)[C@]2(c3ccccc31)[C@H](c1cn(-c3ccccc3)nc1-c1ccccc1)[C@@](C#N)(C(=O)c1c[nH]c3ccccc13)C1CSCN12 (stereo not given in full)", "reported endpoint": "log10(MIC)", "numeric value": 2.70}
{"compound": "C=CCN1C(=O)[C@]2(c3ccccc31)[C@H](c1cn(-c3ccccc3)nc1-c1ccccc1)[C@@](C#N)(C(=O)c1c[nH]c3ccccc13)CN2C", "reported endpoint": "log10(MIC)", "numeric value": 2.70}
{"compound": "N#C[C@]1(C(=O)c2c[nH]c3ccccc23)C2CSCN2[C@]2(C(=O)Nc3ccccc32)[C@@H]1c1cn(-c2ccccc2)nc1-c1ccccc1 (stereo not given in full)", "reported endpoint": "log10(MIC)", "numeric value": 2.70}
{"compound": "N#C[C@]1(C(=O)c2c[nH]c3ccccc23)C2CSCN2[C@]2(C(=O)N(Cc3ccccc3)c3ccccc32)[C@@H]1c1cn(-c2ccccc2)nc1-c1ccccc1 (stereo not given in full)", "reported endpoint": "log10(MIC)", "numeric value": 2.70}

---

Recorded inhibition zone (IZ) by entry
# System: Staphylococcus aureus
# assay overview: Antibacterial activity against methicillin-resistant Staphylococcus aureus assessed as zone of inhibition at 1 mg/disc after 24 hrs by disc diffusion method
# Assay type: functional

{"compound": "N#C[C@]1(C(=O)c2c[nH]c3ccccc23)C2CCCN2[C@]2(C(=O)Nc3ccc(Cl)cc32)[C@@H]1c1cn(-c2ccccc2)nc1-c1ccccc1 (some centres not stated)", "inhibition zone (IZ)": "8 mm"}
{"compound": "CC(=O)N1CCN(c2ccc(OCC3COC(Cn4ccnc4)(c4ccc(Cl)cc4Cl)O3)cc2)CC1 (configuration not stated)", "inhibition zone (IZ)": "30 mm"}
{"compound": "CN1C(=O)[C@]2(c3ccccc31)[C@H](c1cn(-c3ccccc3)nc1-c1ccccc1)[C@@](C#N)(C(=O)c1c[nH]c3ccccc13)C1CCCN12 (some centres not stated)", "inhibition zone (IZ)": "10 mm"}
{"compound": "N#C[C@]1(C(=O)c2c[nH]c3ccccc23)C2CCCN2[C@]2(C(=O)N(Cc3ccccc3)c3ccccc32)[C@@H]1c1cn(-c2ccccc2)nc1-c1ccccc1 (some centres not stated)", "inhibition zone (IZ)": "8 mm"}
{"compound": "CN1C[C@](C#N)(C(=O)c2c[nH]c3ccccc23)[C@@H](c2cn(-c3ccccc3)nc2-c2ccccc2)[C@@]12C(=O)N(Cc1ccccc1)c1ccccc12", "inhibition zone (IZ)": "8 mm"}
{"compound": "C#CCN1C(=O)[C@]2(c3ccccc31)[C@H](c1cn(-c3ccccc3)nc1-c1ccccc1)[C@@](C#N)(C(=O)c1c[nH]c3ccccc13)C1CSCN12 (some centres not stated)", "inhibition zone (IZ)": "13 mm"}
{"compound": "CN1C[C@](C#N)(C(=O)c2c[nH]c3ccccc23)[C@@H](c2cn(-c3ccccc3)nc2-c2ccccc2)[C@@]12C(=O)Nc1ccc([N+](=O)[O-])cc12", "inhibition zone (IZ)": "18 mm"}
{"compound": "CN1C[C@](C#N)(C(=O)c2c[nH]c3ccccc23)[C@@H](c2cn(-c3ccccc3)nc2-c2ccccc2)[C@@]12C(=O)Nc1ccc(Cl)cc12", "inhibition zone (IZ)": "12 mm"}
{"compound": "CN1C[C@](C#N)(C(=O)c2c[nH]c3ccccc23)[C@@H](c2cn(-c3ccccc3)nc2-c2ccccc2)[C@@]12C(=O)Nc1ccccc12", "inhibition zone (IZ)": "8 mm"}
{"compound": "C=CCN1C(=O)[C@]2(c3ccccc31)[C@H](c1cn(-c3ccccc3)nc1-c1ccccc1)[C@@](C#N)(C(=O)c1c[nH]c3ccccc13)CN2C", "inhibition zone (IZ)": "8 mm"}
{"compound": "N#C[C@]1(C(=O)c2c[nH]c3ccccc23)C2CCCN2[C@]2(C(=O)Nc3ccccc32)[C@@H]1c1cn(-c2ccccc2)nc1-c1ccccc1 (some centres not stated)", "inhibition zone (IZ)": "10 mm"}
{"compound": "N#C[C@]1(C(=O)c2c[nH]c3ccccc23)C2CSCN2[C@]2(C(=O)Nc3ccccc32)[C@@H]1c1cn(-c2ccccc2)nc1-c1ccccc1 (some centres not stated)", "inhibition zone (IZ)": "8 mm"}
{"compound": "C=CCN1C(=O)[C@]2(c3ccccc31)[C@H](c1cn(-c3ccccc3)nc1-c1ccccc1)[C@@](C#N)(C(=O)c1c[nH]c3ccccc13)C1CSCN12 (some centres not stated)", "inhibition zone (IZ)": "9 mm"}
{"compound": "N#C[C@]1(C(=O)c2c[nH]c3ccccc23)C2CCCN2[C@]2(C(=O)Nc3ccc([N+](=O)[O-])cc32)[C@@H]1c1cn(-c2ccccc2)nc1-c1ccccc1 (some centres not stated)", "inhibition zone (IZ)": "9 mm"}
{"compound": "CCCCN1C(=O)[C@]2(c3ccccc31)[C@H](c1cn(-c3ccccc3)nc1-c1ccccc1)[C@@](C#N)(C(=O)c1c[nH]c3ccccc13)C1CCCN12 (some centres not stated)", "inhibition zone (IZ)": "12 mm"}
{"compound": "C#CCN1C(=O)[C@]2(c3ccccc31)[C@H](c1cn(-c3ccccc3)nc1-c1ccccc1)[C@@](C#N)(C(=O)c1c[nH]c3ccccc13)CN2C", "inhibition zone (IZ)": "8 mm"}
{"compound": "C#CCN1C(=O)[C@]2(c3ccccc31)[C@H](c1cn(-c3ccccc3)nc1-c1ccccc1)[C@@](C#N)(C(=O)c1c[nH]c3ccccc13)C1CCCN12 (some centres not stated)", "inhibition zone (IZ)": "8 mm"}
